- assay: yeast display, Sf9 membrane polyspecificity reagent, FACS + sequencing; frameworks hold sequencing errors
parameter: polyreactivity (PSR sort gate)

Use the examples below as a reference point.
{"seqString": "QVQLVESGGGLVQAGGSLRLSCAASGSIFRGYTMGWYRQAPGKERELFAAISTRGGSTYYADSVKGRFTISRDNAKNTVYLQMNSLKPEDTAVYYCNARSRGRASGYDYWGQGTQVTVSS", "result": "high polyreactivity"}
{"seqString": "QVQLVESGRGLVQAGGSLRLSCAASGFTFLLNAMGWYRQAPGKERELVAAITYSGGSTYYADSVKGRFTISRDNAKNTVYLQMNSLKPEDTAVYYCAKTSVTISEYEYWGQGTQVTVSS", "result": "low polyreactivity"}
{"seqString": "QVQLVESGGGLVQAGGSLRLSCAASGSTFYDNAMGWYRQAPGKERELVASIRSGGSTKYADSVKGRFTISRDNAKNTVYLQMNSLKPEDTAVYYCATAFIVPFPGSDYWGQGTQVTVSS", "result": "low polyreactivity"}
{"seqString": "QVQLVESGGGLVQAGGSLRLSCAASGRTFGRYAMGWYRKAPGKERELVAAISCSGGSTYYADSVKGRFTISRDNAKNTVYLQMNSLKPEDTAVYYCAADWRQGLWYGYYYWGQGTQVTVSS", "result": "low polyreactivity"}

State the recorded polyreactivity (PSR sort gate) for every item in the following list.
1. QVQLVESGGGLVQAGGSLRLSCAASGLIFLTYARGWYRQAPGKERELVATISGSTGGTYYADSVKGRFTISRDNAKNTVYLQMNSLKPEDTAVYYCNASVFQSEYDYWGQGTQVTVSS
2. QVQLVESGGGLVQAGGSLRLSCAASGFTFSVYAMGWYRQAPGKERELVASITNGGTTYYADSVKGRFTISRDNAKNTVYLQMNSLKPEDTAVYYCAAKLYSWYHKFVNPTYGYWGQGTQVTVSS
3. QVQLVESGGGLVQAGGSLRLSCAASGSIFTHYAMGWYRQAPGKERELVAAISRRGGSTYYADSVKGRFTISRDNAKNTVYLQMNSLKPEDTAVYYCAVRLYLEMDYWGQGTQVTVSS
4. QVQLVESGVGLVQAGGSLRLSCAASGNIFTTYAMGWYRQAPGKERELVAAISRTGGRTSYADSVKGRFTISRDNAKNTVYLQMNSLKPEDTAVYYCAAVPTVRPSAPRARILSDYWGQGTQVTVSS
5. QVQLVESGGGLVQAGGSLRLSCAASGRIFYGNVMGWYRQAPGKERELVAAITRSGGSTYYADSVKGRFTISRDYAKNTVYLQMNSLKPEDTAVYYSNDALVSRDRSYEYWGQGTQVTVSS

Response given:
["low polyreactivity", "high polyreactivity", "high polyreactivity", "high polyreactivity", "high polyreactivity"]

State the recorded polyreactivity (PSR sort gate) for every item in the following list.
1. QVQLVESGGGLVQAGGSLRLSCAASGSIFARNAMGWYRQAPGKERELVAAITWGGGITYYADSVKGRFTISRDNAKNTVYLQMNSLKPEDTAVYYCATDGYSYFTDRLDYWGQGTQVTVSS
2. QVQLVESGGGLVQAGGSLRLSSAASGRTFQRNVMGWYRQAPGKDRELVAAISSSGGGTYYADSVKGRFTISRDNAKNTVYLQMNSLKPEDTAVYYCAARYRSYGGYGYYYWGLGTQVTVSS

Response given:
["low polyreactivity", "high polyreactivity"]
